// data source = patent US20130225488A1

- Study system: Human glucagon receptor (human, UniProt P47871 26-477)
- Assay explanation: cell-based or functional assay
Where no end group is shown, it is not given here. [ ]: non-standard residue; d: D form. αMePhe(2-F) = C[C@](N)(Cc1ccccc1F)C(=O)O; Ac3c = NC1(C(=O)O)CC1
Quick reference: cAMP production with saturated glucagon peptide; test compound 100 nM of the listed items.
Test readout: cAMP production with saturated glucagon peptide; test compound 100 nM

- Binder: "HSQGTFTSD[Bip(OMe)][Bip(2CF3)] (not fully specified (C-terminus); printed as HSQGTFTSD-Bip(OMe)-Bip(2CF3)) [Seq. ID. No. 8: HSQGTFTSD-Bip(OMe)-Bip(2CF3)]"
  Endpoint result: "0 pmol/ml/µg prt"
- Binder: "HAQGT[αMePhe(2-F)]TSD[Bip(OMe)][Bip(2CF3)] [Seq. ID. No. 28: HAQGT-(α-Me-2F-Phe)-TSD-Bip(OMe)-Bip(2CF3)]"
  Endpoint result: "0 pmol/ml/µg prt"
- Binder: "HXQGTXTSDXX (ACP at 2; α-Me-2F-Phe at 6; Bip(OMe) at 10; Bip(2Me) at 11) [Seq. ID. No. 33: H-(ACP)-QGT-(α-Me-2F-Phe)-TSD-Bip(OMe)-Bip(2Me)]"
  Endpoint result: "0 pmol/ml/µg prt"
- Binder: "HXQGTXTSDXX (Aib at 2; α-Me-2F-Phe at 6; Bip(OMe) at 10; Bip(2Me) at 11) [Seq. ID. No. 29: H-Aib-QGT-(α-Me-2F-Phe)-TSD-Bip(OMe)-Bip(2Me)]"
  Endpoint result: "6 pmol/ml/µg prt"
- Binder: "H[Ac3c]QGTFTSD[Bip(OMe)][Bip(2F)] [Seq. ID. No. 19: H-(ACP)-QGTFTSD-Bip(OMe)-Bip(2F)]"
  Endpoint result: "1 pmol/ml/µg prt"
- Binder: "HAQGT[αMePhe(2-F)]TSD[Bip(OMe)][Bip(2F)] [Seq. ID. No. 27: HAQGT-(α-Me-2F-Phe)-TSD-Bip(OMe)-Bip(2F)]"
  Endpoint result: "7 pmol/ml/µg prt"
